Please respond with reported pIC50 for every item in the list.
target.desc: UniProt P62593
Remember, pIC50 is on a log scale: it is -log10 of the molar concentration.

Problem: Bench note: what pIC50 did O=C(N[C@H]1CCNC1)c1ccn(C2=CC3CN(C2)C(=O)N3OS(=O)(=O)O)n1 (some centres unmarked) show?
Result: 9.24

Problem: Bench note: what pIC50 did NC(=O)c1cnn(C2=CC3CN(C2)C(=O)N3OS(=O)(=O)[O-])c1.[Na+] (centres unmarked) show?
Result: 9.14

Problem: Bench note: what pIC50 did O=C1N2CC(n3cc(C(F)(F)F)cn3)=CC(C2)N1OS(=O)(=O)[O-].[Na+] (centres unmarked) show?
Result: 9.68

Problem: Bench note: what pIC50 did N#Cc1cnn(C2=CC3CN(C2)C(=O)N3OS(=O)(=O)[O-])c1.[Na+] (centres unmarked) show?
Result: 9.46

Problem: Bench note: what pIC50 did O=C1N2CC(n3ncnn3)=CC(C2)N1OS(=O)(=O)[O-].[Na+] (centres unmarked) show?
Result: 9.32

Problem: Bench note: what pIC50 did Nc1ncc(C(=O)Nc2ccn(C3=CC4CN(C3)C(=O)N4OS(=O)(=O)[O-])n2)s1.[Na+] (centres unmarked) show?
Result: 9.19

Problem: Bench note: what pIC50 did O=C(Nc1ccccn1)c1ccn(C2=CC3CN(C2)C(=O)N3OS(=O)(=O)[O-])n1.[Na+] (centres unmarked) show?
Result: 9.57

Problem: Bench note: what pIC50 did O=C(Nc1ncns1)c1ccn(C2=CC3CN(C2)C(=O)N3OS(=O)(=O)O)n1 (centres unmarked) show?
Result: 9.44
